Each recorded value in this set is attributed to patent US20260137697A1.

# System: HT-29 cells
# experiment: Proliferation inhibition, CellTiter-Glo, HT-29
# Format: cell-based, human
# experimental parameters: Table D-1; HT-29 (BRAF V600E), 3 days; read-out: Prolif. (proliferation EC50)
pEC50: −log10 of the molar value.
The entries below are paired with their reported pEC50.

compound structure | assayed system | reported measurement
N#CC1(c2cccc3c2ncn3-c2nc3c(Nc4c(F)ccc(NS(=O)(=O)c5cccc(Cl)c5Cl)c4F)ncnc3s2)CC1 | HT-29 cells | > 6.52

Check the records and state pEC50 for "Cc1c(F)cccc1S(=O)(=O)Nc1ccc(F)c(Nc2ncnc3sc(-n4cc(C(=O)N5C6CCC5CN(C)C6)c5ccccc54)nc23)c1F"
> 6.52

----------
# Tested on: pERK, HCT116 cells
# experiment: Phospho-ERK inhibition, AlphaLISA p-ERK 1/2, HCT-116
# Assay type: cell-based, human
# experimental parameters: Table 3; lowest % inhibition value of the pERK IC50 curve; above −20% = no paradoxical induction
observable: HCT116 pERK (Ymin %)
Write the value in % as a bare number.

compound structure | HCT116 pERK (Ymin %)
O=S(=O)(Nc1ccc(F)c(Nc2ncnc3sc(-n4cc(S(=O)(=O)N5C6CCC5COC6)c5ccccc54)nc23)c1F)c1cccc(Cl)c1Cl | 0
O=S(=O)(Nc1ccc(F)c(Nc2ncnc3sc(-n4cnc5c(N6CCC[C@@H](O)C6)cccc54)nc23)c1F)c1cccc(Cl)c1Cl | −2

Okay, next one:
Check the records and state HCT116 pERK (Ymin %) for "C[C@@H]1CN(S(=O)(=O)c2cn(-c3nc4c(Nc5c(F)ccc(NS(=O)(=O)c6cccc(Cl)c6Cl)c5F)ncnc4s3)c3ccccc23)C[C@H](C)N1"
−13

----------
# Test system: pERK, HCT116 cells
# experiment: Phospho-ERK inhibition, AlphaLISA p-ERK 1/2, HCT-116
# Type: cell-based, human
# experimental parameters: Table 3; lowest % inhibition value of the pERK IC50 curve; above −20% = no paradoxical induction
# Description: All cancer cell lines (A375, A101D, A2058, RKO, HT29 SK-MEL 30, IPC298, HepG2, HCT-116, Lovo, SW620, SW480, NCI-H358, NCI-H2122, Calu-6, NCIH2087, NCIH1755, NCIH1666 and Mewo) were obtained from ATCC and cultured in RPM1-1640 medium (Gibco) supplemented with 5% heat inactivated fetal bovine serum (FBS, Wisent) at 37° C. under 5% CO2. Cells were maintained in T175 flasks (Greiner). […] The effect of each compound dilution on the pERK signal was expressed in % inhibition and calculated as follows. […]
The entries below are paired with their reported HCT116 pERK (Ymin %).
Write the value in % as a bare number.

Recorded HCT116 pERK (Ymin %), per entry:
molecule | reading unit | HCT116 pERK (Ymin %)
COCCN(C)C(=O)c1cn(-c2nc3c(Nc4c(F)ccc(NS(=O)(=O)c5cccc(F)c5C)c4F)ncnc3s2)c2ccccc12 | % | 9
CN1CC2CCC(C1)N2S(=O)(=O)c1cn(-c2nc3c(Nc4c(F)ccc(NS(=O)(=O)c5cccc(Cl)c5Cl)c4F)ncnc3s2)c2ccccc12 | % | −6
CS(=O)(=O)C1CCN(c2cccc3c2ncn3-c2nc3c(Nc4c(F)ccc(NS(=O)(=O)c5cccc(Cl)c5Cl)c4F)ncnc3s2)CC1 | % | −5

Consider the molecule "Cc1c(F)cccc1S(=O)(=O)Nc1ccc(F)c(Nc2ncnc3sc(-n4cnc5c(F)cccc54)nc23)c1F" tested on pERK, HCT116 cells; state its HCT116 pERK (Ymin %).
−8

Consider the molecule "Cc1c(F)cccc1S(=O)(=O)Nc1ccc(F)c(Nc2ncnc3sc(-n4cc(C(=O)N5C6CCC5CN(C)C6)c5ccccc54)nc23)c1F" tested on pERK, HCT116 cells; state its HCT116 pERK (Ymin %).
3

Consider the molecule "COC[C@@H]1CCCN1c1cccc2c1ncn2-c1nc2c(Nc3c(F)ccc(NS(=O)(=O)c4cccc(Cl)c4Cl)c3F)ncnc2s1" tested on pERK, HCT116 cells; state its HCT116 pERK (Ymin %).
−11

Consider the molecule "COc1ccc(S(=O)(=O)Nc2ccc(F)c(Nc3ncnc4sc(-n5cnc6c(C(C)(C)C#N)cccc65)nc34)c2F)c(C)c1F" tested on pERK, HCT116 cells; state its HCT116 pERK (Ymin %).
−14

Consider the molecule O=C(c1cn(-c2nc3c(Nc4c(F)ccc(NS(=O)(=O)c5cccc(Cl)c5Cl)c4F)ncnc3s2)c2ccccc12)N1CCC(O)C1 (stereo not shown) tested on pERK, HCT116 cells; state its HCT116 pERK (Ymin %).
−9

Consider the molecule "C[C@]1(CO)CCCN1C(=O)c1cn(-c2nc3c(Nc4c(F)ccc(NS(=O)(=O)c5cccc(Cl)c5Cl)c4F)ncnc3s2)c2ccccc12" tested on pERK, HCT116 cells; state its HCT116 pERK (Ymin %).
−14

Consider the molecule O=C(c1cn(-c2nc3c(Nc4c(F)ccc(NS(=O)(=O)c5cccc(Cl)c5Cl)c4F)ncnc3s2)c2ccccc12)N1CCC(CO)C1 (stereo not shown) tested on pERK, HCT116 cells; state its HCT116 pERK (Ymin %).
−9

Consider the molecule "CC1(C#N)CCN(c2cccc3c2ncn3-c2nc3c(Nc4c(F)ccc(NS(=O)(=O)c5cccc(Cl)c5Cl)c4F)ncnc3s2)CC1" tested on pERK, HCT116 cells; state its HCT116 pERK (Ymin %).
−13

Consider the molecule "O=S(=O)(Nc1ccc(F)c(Nc2ncnc3sc(-n4cc(S(=O)(=O)N5CC(CO)C5)c5ccccc54)nc23)c1F)c1cccc(Cl)c1Cl" tested on pERK, HCT116 cells; state its HCT116 pERK (Ymin %).
−9

Consider the molecule "CN(C)CCN(C)S(=O)(=O)c1cn(-c2nc3c(Nc4c(F)ccc(NS(=O)(=O)c5cccc(Cl)c5Cl)c4F)ncnc3s2)c2ccccc12" tested on pERK, HCT116 cells; state its HCT116 pERK (Ymin %).
0

Consider the molecule "COc1ccc(S(=O)(=O)Nc2ccc(F)c(Nc3ncnc4sc(-n5cnc6ccccc65)nc34)c2F)c(C)c1F" tested on pERK, HCT116 cells; state its HCT116 pERK (Ymin %).
−8

Consider the molecule "O=S(=O)(Nc1ccc(F)c(Nc2ncnc3sc(-n4cnc5c(N6CCC7(CCOC7)CC6)cccc54)nc23)c1F)c1cccc(Cl)c1Cl" tested on pERK, HCT116 cells; state its HCT116 pERK (Ymin %).
−12

Consider the molecule "COc1ccc(S(=O)(=O)Nc2ccc(F)c(Nc3ncnc4sc(-n5cnc6c(N)cccc65)nc34)c2F)c(C)c1F" tested on pERK, HCT116 cells; state its HCT116 pERK (Ymin %).
−3

----------
# assayed system: CRAF (Homo sapiens, UniProt P04049)
# Construct: fused on or other part: GST tag (N-terminal according to the vendor's product)
# Sequence (P04049 whole entry Y340E/Y341E, form open, the tested form may be a part): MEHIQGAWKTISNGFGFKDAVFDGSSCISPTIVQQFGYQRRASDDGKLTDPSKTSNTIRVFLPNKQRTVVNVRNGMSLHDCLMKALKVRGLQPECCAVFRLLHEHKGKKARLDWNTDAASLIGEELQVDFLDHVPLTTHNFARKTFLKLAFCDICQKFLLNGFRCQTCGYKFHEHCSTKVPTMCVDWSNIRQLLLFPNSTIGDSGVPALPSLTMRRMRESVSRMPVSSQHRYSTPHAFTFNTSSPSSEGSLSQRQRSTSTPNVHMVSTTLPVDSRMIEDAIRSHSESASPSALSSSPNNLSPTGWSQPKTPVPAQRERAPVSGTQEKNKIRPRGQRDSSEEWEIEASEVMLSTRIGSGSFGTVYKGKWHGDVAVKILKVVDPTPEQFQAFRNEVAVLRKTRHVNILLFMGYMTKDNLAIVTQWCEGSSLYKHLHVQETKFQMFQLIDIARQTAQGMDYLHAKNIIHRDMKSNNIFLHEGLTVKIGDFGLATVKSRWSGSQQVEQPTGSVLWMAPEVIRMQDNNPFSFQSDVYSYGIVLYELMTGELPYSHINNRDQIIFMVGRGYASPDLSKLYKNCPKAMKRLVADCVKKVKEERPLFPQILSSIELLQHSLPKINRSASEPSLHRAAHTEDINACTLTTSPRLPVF
# experiment: CRAF kinase activity assay (ADP-Glo)
# Assay type: biochemical
# experimental parameters: Table 3; 10 μM ATP, kinase-dead MEK1 substrate
observable: IC50

Recorded IC50, per entry:
molecule | IC50
CC1COCCN1S(=O)(=O)c1cn(-c2nc3c(Nc4c(F)ccc(NS(=O)(=O)c5cccc(Cl)c5Cl)c4F)ncnc3s2)c2ccccc12 (centres unmarked) | 10 to 50 nM
CN1CC2CCC(C1)N2C(=O)c1cn(-c2nc3c(Nc4c(F)ccc(NS(=O)(=O)c5cccc(Cl)c5Cl)c4F)ncnc3s2)c2ccccc12 | < 10 nM
O=C(c1cn(-c2nc3c(Nc4c(F)ccc(NS(=O)(=O)c5cccc(Cl)c5Cl)c4F)ncnc3s2)c2ccccc12)N1CCC(CO)C1 (centres unmarked) | < 10 nM
Cc1c(F)cccc1S(=O)(=O)Nc1ccc(F)c(Nc2ncnc3sc(-n4nc(C(=O)N(C)CCN(C)C)c5ccccc54)nc23)c1F [Example 39] | < 10 nM

Okay, next one:
Consider the molecule "O=S(=O)(Nc1ccc(F)c(Nc2ncnc3sc(-n4cc(S(=O)(=O)N5CC(C(F)F)C5)c5ccccc54)nc23)c1F)c1cccc(Cl)c1Cl" tested on CRAF (Homo sapiens, UniProt P04049); state its IC50.
10 to 50 nM

----------
The entries below are paired with their reported IC50.
# assayed system: CRAF (Homo sapiens)
# Construct: fused on or other part: GST tag (N-terminal according to the vendor's product)
# experiment: CRAF kinase activity assay (ADP-Glo)
# Assay type: biochemical
# experimental parameters: Table 3; 10 μM ATP, kinase-dead MEK1 substrate

Recorded IC50, per entry:
compound | IC50
O=C(c1cn(-c2nc3c(Nc4c(F)ccc(NS(=O)(=O)c5cccc(Cl)c5Cl)c4F)ncnc3s2)c2ccccc12)N1CC(O)(C(F)(F)F)C1 [Example 96] | 10 to 50 nM
Cc1c(F)cccc1S(=O)(=O)Nc1ccc(F)c(Nc2ncnc3sc(-n4nc(C(=O)N5C6CCC5CN(C)C6)c5ccccc54)nc23)c1F [Example 42] | 10 to 50 nM
Nc1ccncc1-c1cccc2c1ncn2-c1nc2c(Nc3c(F)ccc(NS(=O)(=O)c4cccc(Cl)c4Cl)c3F)ncnc2s1 [Example 133] | 10 to 50 nM

Check the records and state IC50 for N#CC1(c2cccc3c2ncn3-c2nc3c(Nc4c(F)ccc(NS(=O)(=O)c5cccc(Cl)c5Cl)c4F)ncnc3s2)CC1 [Example 122]
< 10 nM
